- System: human malignant melanoma cancer cell line (G361)
- method_summary: MTT assay, in vitro anticancer activity, G361
- Format: cell-based
- run_conditions: G361 cells, 24 hours incubation, read-out: inhibition concentrations IC50
pIC50: −log10 of the molar value.
Short version: pIC50 at least 6 is Yes, less is No.

See these solved cases before continuing.
N.N.[Cl][Pt][Cl] [cisplatin, reference compound] : No
F[B-](F)(F)F.O=c1c([O-])c(-c2ccccc2)[nH]c2ccccc12.[Cu+2].c1cnc2c(c1)ccc1cccnc12 [complex 4] : Yes
Cc1cc2cccnc2c2ncccc12.O=[N+]([O-])[O-].O=c1c([O-])c(-c2ccccc2)[nH]c2ccccc12.[Cu+2] [complex 2] : Yes

Ask: Does Cc1cc2cccnc2c2ncccc12.F[B-](F)(F)F.O=c1c([O-])c(-c2ccccc2)[nH]c2ccccc12.[Cu+2] [complex 5] have a reported pIC50 of at least 6?
Result: Yes

---

- Test system: human malignant melanoma cancer cell line (G361)
- method_summary: MTT assay, in vitro anticancer activity, G361
- Assay type: cell-based
- run_conditions: G361 cells, 24 hours incubation, read-out: inhibition concentrations IC50
Catalogue of molecules with associated IC50

Recorded results for 2 molecules are shown here.
F[B-](F)(F)F.O=c1c([O-])c(-c2ccccc2)[nH]c2ccccc12.[Cu+2].c1ccc(-c2ccnc3c2ccc2c(-c4ccccc4)ccnc23)cc1 : 720 nM
O=[N+]([O-])[O-].O=c1c([O-])c(-c2ccccc2)[nH]c2ccccc12.[Cu+2].c1cnc2c(c1)ccc1cccnc12 : 820 nM

Next, consider the following molecule.
Ask: Please tell me: IC50 of O=[N+]([O-])[O-].O=c1c([O-])c(-c2ccccc2)[nH]c2ccccc12.[Cu+2].c1ccc(-c2ccnc3c2ccc2c(-c4ccccc4)ccnc23)cc1 , system human malignant melanoma cancer cell line (G361)?
Result: 960 nM
